// provenance: paper PMC4336329

- TESTED_ON: human ether-à-go-go-related gene (hERG) potassium channel (human, UniProt Q12809)
- Sequence (Q12809 whole entry, looked up): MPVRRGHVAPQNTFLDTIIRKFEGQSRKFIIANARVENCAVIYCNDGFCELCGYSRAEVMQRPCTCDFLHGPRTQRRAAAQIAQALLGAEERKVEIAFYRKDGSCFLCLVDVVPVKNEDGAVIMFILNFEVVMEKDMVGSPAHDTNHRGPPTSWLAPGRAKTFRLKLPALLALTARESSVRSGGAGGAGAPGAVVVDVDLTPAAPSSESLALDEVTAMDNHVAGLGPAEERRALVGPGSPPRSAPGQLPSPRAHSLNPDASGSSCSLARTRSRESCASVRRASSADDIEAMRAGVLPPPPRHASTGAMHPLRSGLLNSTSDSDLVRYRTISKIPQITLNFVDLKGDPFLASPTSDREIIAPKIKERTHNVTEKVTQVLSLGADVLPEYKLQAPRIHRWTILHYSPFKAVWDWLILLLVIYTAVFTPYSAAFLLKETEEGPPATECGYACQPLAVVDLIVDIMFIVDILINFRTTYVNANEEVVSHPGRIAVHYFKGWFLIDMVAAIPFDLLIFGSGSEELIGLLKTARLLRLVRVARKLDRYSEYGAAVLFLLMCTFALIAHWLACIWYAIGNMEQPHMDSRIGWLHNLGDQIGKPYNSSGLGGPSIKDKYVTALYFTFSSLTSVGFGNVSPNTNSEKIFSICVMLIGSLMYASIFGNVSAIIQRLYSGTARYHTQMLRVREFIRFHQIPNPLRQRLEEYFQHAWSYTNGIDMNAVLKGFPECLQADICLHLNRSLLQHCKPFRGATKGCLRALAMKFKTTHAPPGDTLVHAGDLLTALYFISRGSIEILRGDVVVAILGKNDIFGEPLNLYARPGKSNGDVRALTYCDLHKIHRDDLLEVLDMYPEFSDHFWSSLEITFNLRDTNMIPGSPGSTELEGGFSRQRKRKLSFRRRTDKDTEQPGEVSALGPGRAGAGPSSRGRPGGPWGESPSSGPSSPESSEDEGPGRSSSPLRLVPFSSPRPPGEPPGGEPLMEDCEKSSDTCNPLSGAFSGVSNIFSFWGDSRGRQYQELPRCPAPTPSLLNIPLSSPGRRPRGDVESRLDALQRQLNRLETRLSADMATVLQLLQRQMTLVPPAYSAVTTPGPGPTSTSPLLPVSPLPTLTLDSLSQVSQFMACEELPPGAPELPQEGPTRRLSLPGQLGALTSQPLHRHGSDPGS
- METHOD_DESCRIPTION: primary screen, population patch clamp on CHO cells stably expressing hERG; higher = less effect of the substance;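 also: peak tail current of the secondary pulse compared with the same well before compound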
About 14,000 (4.5%) of roughly 310,000 compounds showed an effect of 50% or more. Effects have a minus sign here. The entries come from a sample that favours strong results as a whole.
MEASUREMENT_KIND: hERG current change (%, negative = inhibition) at 10uM

INSERT INTO assay_data (molecule, val) VALUES
  ('C/C(N)=C(/C#N)C(=O)COC(=O)CCS(=O)(=O)c1ccccc1', '12.1%'),
  ('O=C(Nc1cccc(F)c1)N1CC=C(c2ccc(Cl)cc2)CC1', '-13.8%'),
  ('OCCCNC(=S)Nc1ccc(Oc2ccccc2)cc1', '1.06%'),
  ('COc1ccccc1-c1ccc(Nc2cccc(C(F)(F)F)c2)nn1', '15.4%'),
  ('COc1cccc(C(=O)Nc2cc(=O)n(C)c(=O)n2C)c1OC', '13.1%'),
  ('O=C(NCCc1ccccc1)c1ccc(CS(=O)Cc2ccc(Cl)cc2)o1 (stereo not shown)', '-58.8%'),
  ('CN1CCN(C(=O)C2(NC(=O)NCc3ccccc3)CCCCC2)CC1', '13.2%'),
  ('O=C(CCS(=O)(=O)c1cccc2nonc12)Nc1cccc2c1CCCC2', '4.5%'),
  ('O=C(COc1ccc(F)cc1)NCC1(N2CCOCC2)CCCCC1', '-27.9%'),
  ('O=C(c1ccccc1)n1ccc2ccccc21', '-28%');
